# Tested on: H9c2
# TEST_SUMMARY: Anti-ferroptotic activity against RSL3 induced ferroptosis in rat H9c2 cells assessed as cell viability incubated for 24 hrs by Cell-titer-glo assay
# Format: functional, cell-based
# MEASUREMENT_CONTEXT: H9c2, 24 h
For each of the compounds below, state its pEC50.
Numbers only, as −log10 of the molar value.

| COMPOUND_SMILES | STUDY_SYSTEM | pEC50 |
| --- | --- | --- |
| CCOC(=O)c1ccc(NC2CCCCC2)c(N)c1 | H9c2 | 7.16 |

With those in mind, consider the next compound.
Any idea what pEC50 came out for Oc1ccc(-c2[nH]nc(-c3ccc(Cl)cc3)c2O)cc1 on H9c2?
7.36

Reference source: ChEMBL document CHEMBL5532644
